Experimental target: PAS domain-containing serine/threonine-protein kinase (Homo sapiens) (UniProt Q96RG2)
Sequence (Q96RG2 whole entry, the tested form may be a part): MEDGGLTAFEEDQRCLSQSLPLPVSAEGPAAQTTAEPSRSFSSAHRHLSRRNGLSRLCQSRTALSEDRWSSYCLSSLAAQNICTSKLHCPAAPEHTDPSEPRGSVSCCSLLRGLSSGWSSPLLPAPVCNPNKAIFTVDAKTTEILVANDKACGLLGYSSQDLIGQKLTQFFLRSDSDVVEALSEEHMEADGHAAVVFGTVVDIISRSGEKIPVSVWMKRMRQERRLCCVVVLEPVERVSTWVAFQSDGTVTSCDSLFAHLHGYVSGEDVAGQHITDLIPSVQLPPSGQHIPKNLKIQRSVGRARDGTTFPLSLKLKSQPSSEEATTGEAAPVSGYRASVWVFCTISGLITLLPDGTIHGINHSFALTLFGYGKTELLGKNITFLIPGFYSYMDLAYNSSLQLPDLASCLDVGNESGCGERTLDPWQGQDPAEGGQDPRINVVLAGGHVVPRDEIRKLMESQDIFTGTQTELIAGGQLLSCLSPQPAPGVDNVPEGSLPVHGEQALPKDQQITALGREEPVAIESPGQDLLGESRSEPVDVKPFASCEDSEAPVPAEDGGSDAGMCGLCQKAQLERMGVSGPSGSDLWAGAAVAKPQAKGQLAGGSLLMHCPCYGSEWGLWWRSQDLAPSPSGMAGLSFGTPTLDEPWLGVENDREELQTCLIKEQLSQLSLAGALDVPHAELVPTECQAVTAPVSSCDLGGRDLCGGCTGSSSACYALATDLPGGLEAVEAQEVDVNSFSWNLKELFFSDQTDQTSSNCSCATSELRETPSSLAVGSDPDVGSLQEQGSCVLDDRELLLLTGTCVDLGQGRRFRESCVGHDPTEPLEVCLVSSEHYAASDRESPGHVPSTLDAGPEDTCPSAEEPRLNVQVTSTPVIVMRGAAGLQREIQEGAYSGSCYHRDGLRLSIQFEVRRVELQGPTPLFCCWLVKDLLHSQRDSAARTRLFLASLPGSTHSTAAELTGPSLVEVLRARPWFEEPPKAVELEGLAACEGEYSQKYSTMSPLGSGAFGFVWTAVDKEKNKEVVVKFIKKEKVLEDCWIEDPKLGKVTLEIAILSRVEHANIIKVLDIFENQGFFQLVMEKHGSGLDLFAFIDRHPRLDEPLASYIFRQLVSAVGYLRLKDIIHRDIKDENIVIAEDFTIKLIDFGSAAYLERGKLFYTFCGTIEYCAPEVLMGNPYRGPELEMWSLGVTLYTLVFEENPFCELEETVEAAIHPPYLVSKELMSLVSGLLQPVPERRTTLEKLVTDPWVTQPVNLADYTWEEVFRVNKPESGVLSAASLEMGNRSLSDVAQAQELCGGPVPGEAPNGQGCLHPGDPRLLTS
Test settings: at 1 µM
Parameter: residual activity (%)
Numbers only, in %.

>  <Smiles str>
COc1cc(OC)c(/C=C2\C(=O)Nc3ccccc32)c(OC)c1

>  <residual activity (%)>
92

$$$$
>  <Smiles str>
c1ccc(-c2n[nH]cc2-c2ccnc3ccccc23)nc1

>  <residual activity (%)>
95

$$$$

Now look at this one.
# input May I ask what residual activity has been recorded for `O=C1c2ccccc2-[n+]2ccc3c([nH]c4ccccc43)c21` ?
# output 147

----------
Experimental target: Serine/threonine-protein kinase tousled-like 2 (Homo sapiens)
Test settings: at 10 µM
Parameter: residual activity (%)
One number for each entry, in %.

>  <Compound>
CCn1cnc2c(Nc3cccc(Cl)c3)nc(N[C@@H]3CCCC[C@@H]3N)nc21

>  <Result value>
4

$$$$
>  <Compound>
C[S+]([O-])c1ccc(-c2nc(-c3ccc(F)cc3)c(-c3ccncc3)[nH]2)cc1 (configuration not stated)

>  <Result value>
109

$$$$
>  <Compound>
N/C(=N\[N+](=O)[O-])N/N=C\c1ccc(-c2cccc([N+](=O)[O-])c2)o1

>  <Result value>
90

$$$$
>  <Compound>
CC(C)(C)c1cc(C=C(C#N)C#N)cc(Br)c1O

>  <Result value>
98

$$$$
>  <Compound>
COc1ccc2c(c1)/C(=C/c1cnc[nH]1)C(=O)N2

>  <Result value>
11

$$$$

Field: residual activity. Fill in for each record below.
1. COC(=O)[C@@]1(O)C[C@H]2O[C@]1(C)n1c3ccccc3c3c4c(c5c6ccccc6n2c5c31)C(=O)NC4
2. CC(C)[C@H](CO)Nc1nc(Nc2cccc(Cl)c2)c2ncn(C(C)C)c2n1

# output
[0, 81]

The reported numbers originate from ChEMBL document CHEMBL2218924.
